assay: Inhibition of mouse TNF-alpha in mouse L929 cells incubated for 18 hrs by CellTitreGlo assay
Measured Parameter: IC50 (nM)
State the answer as a number, implicitly in nM.

Which IC50 is reported for this compound? Cc1ccc(C)c(Cn2c(C(O)c3ccncc3)nc3ccc(-c4cnn(C)c4)cc32)c1 (stereo unspecified)
125
